Each recorded value in this set is attributed to BindingDB's records for doi:10.1016/j.ejmech.2013.04.056.

Molecular target: Prostaglandin G/H synthase 1 (Ovis aries, UniProt P05979)
Sequence (P05979 whole entry): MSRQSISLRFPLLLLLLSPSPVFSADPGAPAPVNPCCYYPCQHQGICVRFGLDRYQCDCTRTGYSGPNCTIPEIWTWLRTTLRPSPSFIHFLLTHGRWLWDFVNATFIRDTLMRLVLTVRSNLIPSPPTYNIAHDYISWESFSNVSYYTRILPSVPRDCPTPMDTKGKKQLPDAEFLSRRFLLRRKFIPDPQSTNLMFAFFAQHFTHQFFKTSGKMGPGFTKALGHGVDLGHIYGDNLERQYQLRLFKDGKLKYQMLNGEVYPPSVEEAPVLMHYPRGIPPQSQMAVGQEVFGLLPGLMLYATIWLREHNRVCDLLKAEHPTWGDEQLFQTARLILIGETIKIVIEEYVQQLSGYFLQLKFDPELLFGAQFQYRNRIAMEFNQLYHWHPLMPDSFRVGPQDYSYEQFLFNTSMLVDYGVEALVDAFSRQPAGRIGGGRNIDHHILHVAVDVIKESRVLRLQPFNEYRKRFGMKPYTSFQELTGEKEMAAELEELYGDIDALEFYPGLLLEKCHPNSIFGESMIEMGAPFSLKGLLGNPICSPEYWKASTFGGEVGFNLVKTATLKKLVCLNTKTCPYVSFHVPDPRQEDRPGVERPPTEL
outcome_measure: pIC50
# pIC50 is unitless: minus log10 of the molar concentration; print number only

Query: Answer with pIC50 of "COc1cc(/C=C/C(=O)c2c(O)cc(C)c(Cl)c2C)cc(OC)c1OC" measured for Prostaglandin G/H synthase 1 (Ovis aries, UniProt P05979).
Response: 4.06
